// values below are reported Adenosine A3 receptor ECR*
- system_under_test: human adenosine A3 receptors (Homo sapiens)
- Construct: expressed in transfected cells; host or cells: Chinese hamster ovary (CHO) cells with CRE/SPAP/HYG reporter
- Sequence (P0DMS8 whole entry): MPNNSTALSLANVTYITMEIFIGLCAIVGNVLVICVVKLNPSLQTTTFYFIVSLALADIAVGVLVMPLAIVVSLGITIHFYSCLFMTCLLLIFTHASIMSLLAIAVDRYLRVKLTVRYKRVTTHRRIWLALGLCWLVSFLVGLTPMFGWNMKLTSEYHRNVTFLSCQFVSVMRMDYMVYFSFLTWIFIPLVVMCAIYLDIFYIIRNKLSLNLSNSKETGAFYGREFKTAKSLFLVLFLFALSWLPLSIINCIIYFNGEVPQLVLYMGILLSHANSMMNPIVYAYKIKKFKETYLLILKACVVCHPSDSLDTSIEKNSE
- assay_protocol: Reporter gene experiments in CHO cells (CRE/SPAP, inhibition of forskolin-stimulated SPAP production)
- Assay type: cell-based
- condition_parameters: ECR = equipotent concentration ratio relative to NECA = 1; agonist potency, CHO CRE/SPAP reporter gene assay

Examples with answers:
C#C[C@H]1O[C@@H](n2cnc3c(Nc4cccc(Cl)c4C)ncnc32)[C@H](O)[C@@H]1O
>145
C#C[C@H]1O[C@@H](n2cnc3c(NCCc4ccccc4)ncnc32)[C@H](O)[C@@H]1O
>1059
C#C[C@H]1O[C@@H](n2cnc3c(Nc4ccc(F)cc4C)ncnc32)[C@H](O)[C@@H]1O
>1117
C#C[C@H]1O[C@@H](n2cnc3c(Nc4cc(Cl)ccc4C)ncnc32)[C@H](O)[C@@H]1O
>505
C#C[C@H]1O[C@@H](n2cnc3c(N[C@H]4[C@H]5CC[C@H](C5)[C@@H]4C)ncnc32)[C@H](O)[C@@H]1O
>178
C#C[C@H]1O[C@@H](n2cnc3c(N[C@H]4CCC[C@@H]4O)ncnc32)[C@H](O)[C@@H]1O
>823

# next compound below
Q) Look at this compound and give its reported Adenosine A3 receptor ECR*. "C#C[C@H]1O[C@@H](n2cnc3c(NC4Cc5ccccc5C4)ncnc32)[C@H](O)[C@@H]1O"
A) >407

---

- system_under_test: human adenosine A3 receptors (Homo sapiens)
- Construct: expressed in transfected cells; host or cells: Chinese hamster ovary (CHO) cells with CRE/SPAP/HYG reporter
- assay_protocol: Reporter gene experiments in CHO cells (CRE/SPAP, inhibition of forskolin-stimulated SPAP production)
- Type: cell-based
- condition_parameters: ECR = equipotent concentration ratio relative to NECA = 1; agonist potency, CHO CRE/SPAP reporter gene assay
outcome_measure: Adenosine A3 receptor ECR*

C#C[C@H]1O[C@@H](n2cnc3c(Nc4cccc(F)c4C)ncnc32)[C@H](O)[C@@H]1O
>145

Q) Value lookup for Adenosine A3 receptor ECR*; key = "C#C[C@H]1O[C@@H](n2cnc3c(NCCS(=O)(=O)NCC)ncnc32)[C@H](O)[C@@H]1O"
A) >1070

Q) GET /values?readout=Adenosine A3 receptor ECR*&item= "C#C[C@H]1O[C@@H](n2cnc3c(NCC4CC4)ncnc32)[C@H](O)[C@@H]1O"
A) >210

---

- system_under_test: human adenosine A1 receptors (Homo sapiens)
- Construct: expressed in transfected cells
- Sequence (P30542 whole entry): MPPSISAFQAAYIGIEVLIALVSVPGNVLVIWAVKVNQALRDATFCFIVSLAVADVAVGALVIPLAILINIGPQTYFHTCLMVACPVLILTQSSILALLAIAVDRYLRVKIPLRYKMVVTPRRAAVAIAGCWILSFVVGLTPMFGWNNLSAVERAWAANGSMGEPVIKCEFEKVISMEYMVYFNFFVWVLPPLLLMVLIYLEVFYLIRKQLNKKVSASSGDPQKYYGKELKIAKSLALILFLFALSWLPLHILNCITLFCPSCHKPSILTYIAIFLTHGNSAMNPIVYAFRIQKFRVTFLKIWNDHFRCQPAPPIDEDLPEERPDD
- assay_protocol: Reporter gene experiments in yeast (agonist activity, β-galactosidase/FDG readout)
- Format: cell-based
- Design: key: equipotent concentration ratio relative to NECA = 1
- condition_parameters: ECR = equipotent concentration ratio relative to NECA = 1; agonist potency, yeast reporter gene assay
outcome_measure: Adenosine A1 receptor ECR*

Sample answers from the record:
C#C[C@H]1O[C@@H](n2cnc3c(Nc4ccc(F)cc4C)ncnc32)[C@H](O)[C@@H]1O
7.15
C#C[C@H]1O[C@@H](n2cnc3c(Nc4cc(Cl)ccc4C)ncnc32)[C@H](O)[C@@H]1O
16.94
C#C[C@H]1O[C@@H](n2cnc3c(Nc4cccc(Cl)c4C)ncnc32)[C@H](O)[C@@H]1O
5.45
C#C[C@H]1O[C@@H](n2cnc3c(NCCc4ccccc4)ncnc32)[C@H](O)[C@@H]1O
24.6
C#C[C@H]1O[C@@H](n2cnc3c(NC4CC4(C)C)ncnc32)[C@H](O)[C@@H]1O (some centres unmarked)
6.81

(I) C#C[C@H]1O[C@@H](n2cnc3c(NC4CCCCC4)ncnc32)[C@H](O)[C@@H]1O
(II) C#C[C@H]1O[C@@H](n2cnc3c(Nc4cccc(F)c4C)ncnc32)[C@H](O)[C@@H]1O
Q) Among I and II , whose measured Adenosine A1 receptor ECR* is the smaller figure? Selection: enter the item's label.
A) II
(II: 4.79, I: 11.4)

(1) C#C[C@H]1O[C@@H](n2cnc3c(NC4CCN(C(=O)OCC)CC4)ncnc32)[C@H](O)[C@@H]1O
(2) C#C[C@H]1O[C@@H](n2cnc3c(N[C@H]4C[C@H]5CCC[C@H]54)ncnc32)[C@H](O)[C@@H]1O (relative stereo)
(3) C#C[C@H]1O[C@@H](n2cnc3c(NC4CCCC4)ncnc32)[C@H](O)[C@@H]1O
(4) C#C[C@H]1O[C@@H](n2cnc3c(NC4Cc5ccccc5C4)ncnc32)[C@H](O)[C@@H]1O
(5) C#C[C@H]1O[C@@H](n2cnc3c(NC4CC4)ncnc32)[C@H](O)[C@@H]1O
Q) Please order the records by their reported Adenosine A1 receptor ECR*, lowest number first. Hello, could you send the labels back in the order asked? Thank you.
A) 2, 3, 5, 1, 4
(2: 2.88, 3: 4.47, 5: 6.89, 1: 10, 4: 27.96)

(A) C#C[C@H]1O[C@@H](n2cnc3c(Nc4ccc(F)cc4F)ncnc32)[C@H](O)[C@@H]1O
(B) C#C[C@H]1O[C@@H](n2cnc3c(NCC4CC4)ncnc32)[C@H](O)[C@@H]1O
(C) C#C[C@H]1O[C@@H](n2cnc3c(Nc4ccc(Cl)cc4F)ncnc32)[C@H](O)[C@@H]1O
Q) // ranking: key=Adenosine A1 receptor ECR*, reverse=True Reply with the labels, ordered as the question asks.
A) C, A, B

(a) C#C[C@H]1O[C@@H](n2cnc3c(NCCS(=O)(=O)NCC)ncnc32)[C@H](O)[C@@H]1O
(b) C#C[C@H]1O[C@@H](n2cnc3c(Nc4ccc(F)c(F)c4)ncnc32)[C@H](O)[C@@H]1O
Q) Field: lower recorded Adenosine A1 receptor ECR* (choose a or b ) To answer, give the label that identifies your chosen option.
A) a

Just for reference, patent US20040162422A1 is where these values come from.
